Sourced from PubChem BioAssay (NCI)

Test system: 786-0 renal
measurement.protocol: NCI-60 one-dose screen, 48 h
run.conditions: 10 µM unless noted
The panel holds about 83,000 compounds, 20% with a hit somewhere; the sample as a whole holds those more often. Activity calls are given as the source filed them. How the source made its calls: active means growth percent below 10; inactive means the rest.
// classify into active, inactive

A selection of reference data follows.
compound	assigned.class
N=C(N)N=Nc1ccc(NN=C(N)N)c2ccccc12	inactive
CC(=O)c1nn(-c2ccc(C)cc2)cc1C(=O)c1cc2c(ccc3ccccc32)oc1=O	inactive
Cc1ccc(S(=O)(=O)Nc2cccc(Cn3c(=O)[nH]c4ccc(Oc5ncccn5)cc4c3=O)c2)cc1	inactive
N#CCc1ncc(-c2ccc(C(F)(F)F)cc2)c(NC2CCCCCC2)n1	inactive
CC(=O)Nc1ccc(C(=O)/C=C/c2ccc(N(C)C)cc2)cc1	inactive
Ic1ccc(SSc2ccc(I)cc2)cc1	inactive

What was the test verdict on CCCNC(=O)Oc1ccc(/C(=C(/C)Cc2ccc(OC)cc2)c2ccc(OCCN3CCCCC3)cc2)cc1 ?
inactive

Oc1ccc(Br)cc1/C=N/NC(=S)NC12CC3CC(CC(C3)C1)C2 , same question.
inactive

O=C(Nc1ccc(-n2cc(-c3ccncc3)c(-c3ccc(Cl)c(O)c3)n2)cc1)Nc1cc(C(F)(F)F)cc(C(F)(F)F)c1 , same question.
active

Cc1cc2c(-c3nc4ccccc4[nH]3)c(O)c(O)cc2c(O)c1-c1c(C)cc2c(-c3nc4ccccc4[nH]3)c(O)c(O)cc2c1O , same question.
active

CCOC(=O)C1=C(c2ccccc2)NC(=O)NC1CN1C(=O)c2ccccc2C1=O (stereo not given) , same question.
inactive

CCOC(=O)c1cc(C(=O)c2ccc(Br)cc2)n2cc(C)cc(C)c12 , same question.
inactive

COc1cc(-c2nc3c(c(C)nc4c3nnn4-c3ccccc3)c(=O)o2)cc(OC)c1OC , same question.
inactive

CCCCCCCCc1ccc(CCC(N)(CO)CO)cc1 , same question.
active

Cc1ccc(C(=O)Nc2ccc(CN3CCN(C)CC3)c(C(F)(F)F)c2)cc1C#Cc1cncc2ncccc12 , same question.
active
